assay: Intrinsic clearance in human liver microsomes; format: ADME, Microsome
# if value of microsomal CLint reaches 40 µL/min/mg, tag rule met; if it stays below, tag rule not met

COc1cc2c(cc1-c1cnco1)C(=O)N(C)C1(CCN(C(=O)N(C(C)C)C(C)C)C1)N2 (stereo not given)    rule met
COc1cc2c(cc1-c1cnco1)C(=O)N(C)C1(CCN(C(=O)OC(C)(C)C)C1)N2 (stereo not given)    rule met
CCOC(=O)N1CCC2(C1)Nc1cc(OC)c(-c3cnco3)cc1C(=O)N2C (stereo not given)    rule not met
COC(=O)[C@H]1C[C@]2(CN1C(=O)OC(C)(C)C)Nc1cc(OC)c(-c3cnco3)cc1C(=O)N2C    rule not met
COc1cc2c(cc1-c1cnco1)C(=O)N(C)C1(CCN(C(=O)C(C)(C)C)C1)N2 (stereo not given)    rule met

The reported numbers originate from ChEMBL document CHEMBL1141942.
